# Test system: MCF7
# experiment summary: NCI tumour cell line growth inhibition, 48 h
Active and inactive are the calls of the source. Cut-off read from the data, not from the text of the source: active = GI50 up to about 1.1 µM and inactive = higher.
quantity kind: GI50

> print(dat)
                                    compound            data.value
 1     CC/C(=C\c1ccc(Cl)c(Cl)c1)[N+](=O)[O-]    1.15 µM (inactive)
 2  O=C(NCCC1CN(S(=O)(=O)C(F)(F)F)c2ccccc21)OCc1ccccc1 (stereo not given)   > 100 µM (inactive)
 3             C=CC[C@@]12CCC(=O)C=C1CCCC2=O   > 100 µM (inactive)
 4  C[C@]12Cc3cnn(-c4ccc(F)cc4)c3NC1CC[C@@H]1C2CC[C@@]2(C)C1CC[C@@H]2O (stereo not given in full)    4.32 µM (inactive)
 5  COc1cc(/C=C2\N=C(c3ccccc3)N(c3cc4cc(Sc5ccccc5)ccc4[nH]3)C2=O)cc(OC)c1OC    11.5 µM (inactive)
 6  CC(=O)OCC1OC(n2c3c(c(-c4ccco4)c(C#N)c2=S)CCCC3)C(OC(C)=O)C(OC(C)=O)C1OC(C)=O (stereo not given)  > 76.2 µM (inactive)
 7       Fc1ccc(/C(=N/Cc2ccccc2)N2CCOCC2)cc1   > 100 µM (inactive)
 8  COc1ccc(OC)c(NCC(=O)Nn2cnc3ccc(S(=O)(=O)Nc4cc(OC)ccc4OC)cc3c2=O)c1   > 100 µM (inactive)
 9  CC1C2Cc3ccc(O)cc3C1(C)CCN2C (stereo not given)   > 100 µM (inactive)
10     COC(=O)NN=C(c1ccc(Cl)cc1)c1ccc(Cl)cc1   > 100 µM (inactive)

###

# Test system: HT-29
# experiment summary: NCI tumour cell line growth inhibition, 48 h
Active and inactive are the calls of the source. No stated cut-off is given here; in the data, active = GI50 up to about 1.1 µM and inactive = higher.
Labels: class 1 for active, class 0 for inactive

compound	cat
COc1ccc2nc3cc([N+](=O)[O-])ccc3c(NNc3ccc(Cl)cc3)c2c1	class 0
CC(=O)OCC1OC(n2c3c(c(-c4ccco4)c(C#N)c2=S)CCCC3)C(OC(C)=O)C(OC(C)=O)C1OC(C)=O (stereo not given)	class 0
O=c1c(Br)cc2c(-c3ccccc3)c3cc(Br)c(O)c(Br)c3oc-2c1Br	class 0
CC(C(=O)NCNC(=O)c1ccccc1)C(=O)Nc1ccccc1 (stereo not given)	class 0
CCCCNC(=O)N/C=C1\C(=O)Oc2ccccc2C1=O	class 0
CN1N=C(c2ccccc2)c2cc(Cl)ccc2N=C1N/N=C/c1ccc(N(C)C)cc1	class 0
CCCCCCCCCCCCCC(=O)OC1C(O)C(CO)OC(OC)C1NC(=O)N(CCCl)N=O (stereo not given)	class 0
C1CSCCSCSCCS1	class 0
Cc1ccc(NC(=O)OCC(COc2ccc(Cl)cc2)OC(=O)Nc2ccc(C)cc2)cc1 (stereo not given)	class 0
CC(=O)O[C@H]1C(=O)[C@@]2(C)[C@H]([C@H](OC(=O)c3ccc(F)cc3)[C@]3(O)C[C@H](OC(=O)[C@H](O)[C@@H](NC(=O)c4ccccc4)c4ccccc4)C(C)=C1C3(C)C)[C@]1(OC(C)=O)CO[C@@H]1C[C@@H]2O	class 1
CNc1nnnn1C1OC(CO)C(O)C1O (stereo not given)	class 0
Cc1noc2cccc(OCc3ccccc3)c12	class 0
O=C(CON1C(=O)c2ccccc2C1=O)c1ccccc1	class 0
Cc1ccc(/C=C2\CCCCCC2=O)cc1	class 0
Nc1nc(-[n+]2ccc(-c3ccncc3)cc2)nc(Cl)c1Cl	class 0
CC1=Nc2c(O)nc(S)nc2NC(c2c(Cl)cccc2Cl)C1 (stereo not given)	class 1
COc1cc(/C=C2\C[C@H]3[C@@H]4CC=C5C[C@@H](N6CCCC6)CC[C@]5(C)[C@H]4CC[C@]3(C)[C@H]2O)cc(OC)c1OC	class 0
CC1(C)CCC[C@]2(C)[C@@H]1CC[C@@]13O[C@@H]1C1=C(CO)C(=O)O[C@]14O[C@@H]4[C@@H]23	class 0
O=C(O)Cn1ncn(NC(=O)Cc2ccccc2)c1=S	class 0
COc1cc(/C=C2\CC/C(=C\c3cc(OC)c(O)c(OC)c3)C2=O)cc(OC)c1O	class 0
